# credit: patent US20240246966A1

STUDY TARGET: Human σ2/TMEM97 receptor (Homo sapiens)
TEST SUMMARY: Binding assay to human σ2/TMEM97 receptor ([3H]-DTG, transfected HEK-293 membranes)
ASSAY CONTEXT: human σ2/TMEM97, [3H]-DTG 10 nM, binding expressed as Ki, read-out: Binding σ-2
pKi: −log10 of the molar value.
OUTCOME MEASURE: pKi

Prompt: Notebook: pull reported pKi for Human σ2/TMEM97 receptor (Homo sapiens), entry COc1ncccc1-c1cnn2cc(CN3CCCC3)cnc12 [Example 4]
Response: < 6.00

Prompt: Same read-out for FC(F)(F)c1cc(-c2cnn3cc(CN4CCC5(CCOCC5)CC4)cnc23)ccn1 [Example 32] ?
Response: 6.30 to 7.00

Prompt: Same question for FC(F)(F)c1cc(-c2cnn3cc(CN4CCCC4)cnc23)ccn1 [Example 1] please.
Response: < 6.00

====

STUDY TARGET: Human σ2/TMEM97 receptor (Homo sapiens, UniProt Q5BJF2)
Sequence (Q5BJF2 whole entry): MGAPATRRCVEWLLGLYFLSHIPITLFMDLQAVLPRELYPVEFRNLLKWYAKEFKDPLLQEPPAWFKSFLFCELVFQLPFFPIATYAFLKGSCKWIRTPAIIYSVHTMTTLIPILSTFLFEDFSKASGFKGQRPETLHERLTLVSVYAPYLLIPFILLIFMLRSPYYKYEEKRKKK
TEST SUMMARY: Binding assay to human σ2/TMEM97 receptor ([3H]-DTG, transfected HEK-293 membranes)
ASSAY CONTEXT: human σ2/TMEM97, [3H]-DTG 10 nM, binding expressed as Ki, read-out: Binding σ-2
OUTCOME MEASURE: Ki

Prompt: Find the measured Ki: item FC(F)(F)c1cccc(-c2cnn3cc(CN4CCC5(CC4)COC5)cnc23)n1 , target or system Human σ2/TMEM97 receptor (Homo sapiens, UniProt Q5BJF2).
Response: 500 to 1000 nM

====

Entries and their pKi values follow.
STUDY TARGET: Human σ2/TMEM97 receptor (Homo sapiens, UniProt Q5BJF2)
Construct: expressed in transfected cells; host or cells: HEK-293
TEST SUMMARY: Binding assay to human σ2/TMEM97 receptor ([3H]-DTG, transfected HEK-293 membranes)
ASSAY CONTEXT: human σ2/TMEM97, [3H]-DTG 10 nM, binding expressed as Ki, read-out: Binding σ-2
pKi: −log10 of the molar value.

Prompt: Could you tell me which pKi is on file for FC(F)(F)c1cc(-n2ncc3cc(CN4CCC5(CC4)COC5)cnc32)ccn1 [Example 58] ?
Response: 6.30 to 7.00

Prompt: Also check FC(F)(F)c1cc(-n2ccc3cc(CN4CCC5(CCOCC5)CC4)cnc32)ccn1 [Example 46]
Response: > 7.00

Prompt: Could you do the same for COC1CCN(Cc2cnc3c(-c4ccnc(C(F)(F)F)c4)cnn3c2)CC1 [Example 34] , please?
Response: < 6.00

Prompt: Item: FC(F)(F)c1cc(-n2ccc3cc(CN4CCCOCC4)cnc32)ccn1 [Example 50]
Response: < 6.00

Prompt: Thanks! And Cc1cc(-c2cnn3cc(CN4CCC5(CC4)COC5)cnc23)ccn1 [Example 15] ?
Response: < 6.00

====

STUDY TARGET: Human σ2/TMEM97 receptor (Homo sapiens, UniProt Q5BJF2)
TEST SUMMARY: Binding assay to human σ2/TMEM97 receptor ([3H]-DTG, transfected HEK-293 membranes)
ASSAY CONTEXT: human σ2/TMEM97, [3H]-DTG 10 nM, binding expressed as Ki, read-out: Binding σ-2
pKi: −log10 of the molar value.
OUTCOME MEASURE: pKi

Solved entries (count: 8):
>  <TEST SMILES>
FC(F)(F)c1ncccc1-n1ccc2cc(CN3CCC4(CCOC4)CC3)cnc21

>  <STUDY TARGET>
Human σ2/TMEM97 receptor (Homo sapiens, UniProt Q5BJF2)

>  <pKi>
6.00 to 6.30

$$$$
>  <TEST SMILES>
c1ccc(-c2cnn3cc(CN4CCC5(CC4)COC5)cnc23)nc1

>  <STUDY TARGET>
Human σ2/TMEM97 receptor (Homo sapiens, UniProt Q5BJF2)

>  <pKi>
< 6.00

$$$$
>  <TEST SMILES>
FC(F)(F)c1cc(-n2ccc3cc(CN4CCC5(CCOC5)CC4)cnc32)ccn1

>  <STUDY TARGET>
Human σ2/TMEM97 receptor (Homo sapiens, UniProt Q5BJF2)

>  <pKi>
6.30 to 7.00

$$$$
>  <TEST SMILES>
Fc1cnccc1-c1cnn2cc(CN3CCC4(CCO4)CC3)cnc12

>  <STUDY TARGET>
Human σ2/TMEM97 receptor (Homo sapiens, UniProt Q5BJF2)

>  <pKi>
< 6.00

$$$$
>  <TEST SMILES>
COCC1CCN(Cc2cnc3c(ccn3-c3cccnc3C(F)(F)F)c2)CC1

>  <STUDY TARGET>
Human σ2/TMEM97 receptor (Homo sapiens, UniProt Q5BJF2)

>  <pKi>
6.30 to 7.00

$$$$
>  <TEST SMILES>
FC(F)(F)c1cc(-c2cnn3cc(CN4CCCOCC4)cnc23)ccn1

>  <STUDY TARGET>
Human σ2/TMEM97 receptor (Homo sapiens, UniProt Q5BJF2)

>  <pKi>
6.30 to 7.00

$$$$
>  <TEST SMILES>
COC1CCN(Cc2cnc3c(-c4ccc(C(F)(F)F)nc4)cnn3c2)CC1

>  <STUDY TARGET>
Human σ2/TMEM97 receptor (Homo sapiens, UniProt Q5BJF2)

>  <pKi>
< 6.00

$$$$
>  <TEST SMILES>
FC(F)(F)c1cc(-c2cnn3cc(CN4CCC5(CC4)COC5)ccc23)ccn1

>  <STUDY TARGET>
Human σ2/TMEM97 receptor (Homo sapiens, UniProt Q5BJF2)

>  <pKi>
6.30 to 7.00

$$$$

Prompt: Reported pKi for Human σ2/TMEM97 receptor (Homo sapiens, UniProt Q5BJF2), given Cc1cc(-c2cnn3cc(CN4CCC5(CCOCC5)CC4)cnc23)ccn1 ?
Response: < 6.00

Prompt: Follow-up item: Cc1cc(-c2cnn3cc(CN4CC5(CCOCC5)C4)cnc23)ccn1
Response: < 6.00

Prompt: Same for COC1CCN(Cc2cnc3c(ccn3-c3ccnc(C(F)(F)F)c3)c2)CC1
Response: 6.00 to 6.30

====

Catalogue of Ki values
STUDY TARGET: Human σ2/TMEM97 receptor (Homo sapiens, UniProt Q5BJF2)
TEST SUMMARY: Binding assay to human σ2/TMEM97 receptor ([3H]-DTG, transfected HEK-293 membranes)
ASSAY CONTEXT: human σ2/TMEM97, [3H]-DTG 10 nM, binding expressed as Ki, read-out: Binding σ-2

Record excerpt, results attached:
>  <TEST SMILES>
Cc1nc2c(-c3ccnc(C(F)(F)F)c3)cnn2c(C)c1CN1CCC2(CC1)COC2

>  <Ki>
500 to 1000 nM

$$$$
>  <TEST SMILES>
FC(F)(F)c1ccc(-c2cnn3cc(CN4CCC5(CC4)COC5)cnc23)cn1

>  <Ki>
500 to 1000 nM

$$$$

Next compound, please.
Prompt: # get_value(readout='Ki', item= c1ccc(C2CCN(Cc3cnc4c(-c5ccncc5)cnn4c3)CC2)cc1 )
Response: > 1000 nM

====

STUDY TARGET: Human σ2/TMEM97 receptor (Homo sapiens, UniProt Q5BJF2)
TEST SUMMARY: Binding assay to human σ2/TMEM97 receptor ([3H]-DTG, transfected HEK-293 membranes)
ASSAY CONTEXT: human σ2/TMEM97, [3H]-DTG 10 nM, binding expressed as Ki, read-out: Binding σ-2
pKi: −log10 of the molar value.
OUTCOME MEASURE: pKi

Examples from the recorded data:
>  <TEST SMILES>
COCC1CCN(Cc2cnc3c(-c4ccnc(C(F)(F)F)c4)cnn3c2)CC1

>  <OUTCOME MEASURE>
pKi

>  <OBSERVED VALUE>
6.00 to 6.30

$$$$
>  <TEST SMILES>
COC1CCN(Cc2cnc3c(ccn3-c3ccc(C(F)(F)F)nc3)c2)CC1

>  <OUTCOME MEASURE>
pKi

>  <OBSERVED VALUE>
6.00 to 6.30

$$$$
>  <TEST SMILES>
FC1(F)CCN(Cc2cnc3c(-c4ccnc(C(F)(F)F)c4)cnn3c2)CC1

>  <OUTCOME MEASURE>
pKi

>  <OBSERVED VALUE>
< 6.00

$$$$

Prompt: Any idea what pKi came out for Cc1cc(-c2cnn3cc(CN4CCCOCC4)cnc23)ccn1 on Human σ2/TMEM97 receptor (Homo sapiens, UniProt Q5BJF2)?
Response: < 6.00

====

STUDY TARGET: Human σ2/TMEM97 receptor (Homo sapiens)
TEST SUMMARY: Binding assay to human σ2/TMEM97 receptor ([3H]-DTG, transfected HEK-293 membranes)
ASSAY CONTEXT: human σ2/TMEM97, [3H]-DTG 10 nM, binding expressed as Ki, read-out: Binding σ-2
# Ki listing for each entry below

>  <TEST SMILES>
FC(F)(F)c1ncccc1-n1ccc2cc(CN3CCC4(CCOCC4)CC3)cnc21

>  <Ki>
100 to 500 nM

$$$$

Prompt: I am curious: what Ki value has been reported for OCC1(CCl)CCN(Cc2cnc3c(-c4ccnc(C(F)(F)F)c4)cnn3c2)CC1 ?
Response: 100 to 500 nM

Prompt: Let us now turn to COCC1CCN(Cc2cnc3c(-c4ccnc(C)c4)cnn3c2)CC1
Response: > 1000 nM

Prompt: Request: FC(F)(F)c1ccc(-n2ccc3cc(CN4CC5(CCOCC5)C4)cnc32)cn1
Response: 100 to 500 nM
